# MEASURED_ON: T1, human MSLN-FL-his protein (human, UniProt Q13421 296-580)
# T1 construct: made in HEK293E cells, purified on nickel column; also called hMSLN-FL-his; human MSLN full-length protein; not shown: His tag
# ASSAY_REMARKS: competitive ELISA; row F2.17.3
# reported competition rate; entries follow
Answer in %, number only, no unit symbol.

Please review the entries below; each comes with its answer.
S009-F2.16.10 (antibody, human IgG1, kappa, V domains shown, human-murine chimeric antibody, human IgG1/kappa constant regions) VH: QVQLQQPGAELIKPGASVKLSCKASGYTFTSYWMHWVKQRPGQGLEWIGIIHPNIGSTNYNERFKSKATLTVDKSSSTAYMQLSSLTSEDSAVYYCARRSSNYGDWYFDVWGTGTTVTVSS VL: DIVMTQSHRFMSTSVGDRVSITCKASQDVGTSVAWYQQKPGQSPKLLIYWASTQHTGVPDRFTGSGSGTDFTLTINNVQSEDLLDYFCQQYSSYPLTFGAGTKLELKR; -34
S009-F2.47.1 (antibody, human IgG1, kappa, V domains shown, human-murine chimeric antibody, human IgG1/kappa constant regions) VH: QVQLQQPGAELVKPGASVKLSCKASGYTFTSYWMHWVKQRPGQGLEWIGMIHPNSGSTNYNEKFKSKATLTVDKSSSTAYMQLSSLTSEDSAVYYCARPVVPYWYFDVWGTGTTVTVSS VL: DIVMTQSQKFMSTTVGDRVSITCKASQNVGTAVAWYQQKPGQSPKLLIYSASNRYTGVPDRFTGSGSGTDFTLTISNMQSEDLADYFCQQSSSYPLTFGAGTKLELKR; -88

Shifting focus to the binder that follows.
Can you look up the measured competition rate of S009-F2.13.3 (antibody, human IgG1, kappa, V domains shown, human-murine chimeric antibody, human IgG1/kappa constant regions) VH: QVQLQQSGAELMKPGASVKLSCKATGYTFTGYWIEWVKQRPGHGLEWIGEILPGSGSTNYNEKFKGKATFTADTSSNTAYMQLSSLTTEDSAIYYCARAGAWFAYWGQGTLVTVSA VL: QIVLTQSPAIMSASLGERVTMTCTASSSVSSSYLHWYQQKPGSSPKLWTYSTSNLASGVPARFSGSGSGTSYSLTISSMEAEDAATYYCHQYHRSPWTFGGGTKLEIKR for me? -11
